- Experiment: Suppression of anxiety (punished licking, conflict test) in the adult male rat
- Assay type: in vivo, male rats
- Condition summary: Table 4, minimum effective dose, read-out: Conflict MED
Entries annotated with measured minimal effective dose
Measured attribute: minimal effective dose (mg/kg)

O=C(Nc1ccccc1F)c1c(=O)ccn2c1[nH]c1ccccc12	0.1
O=C(Nc1c(F)cccc1F)c1c(=O)ccn2c1[nH]c1ccccc12	0.3

###

Entries annotated with measured IC50
- Assayed system: benzodiazepine site of the GABA-A receptor
- Experiment: Benzodiazepine Receptor Binding Assay (inhibition of 3H-flunitrazepam binding)
- Condition summary: Table 1; ca. 3 nM 3H-flunitrazepam, 25° C., 10-20 min; >10,000 = not active
Measured attribute: IC50 (nM)

Cc1cc(NC(=O)C2=C3Nc4ccccc4N3CCC2=O)c2ccccc2n1	10000
CCN(CC)c1ccc(NC(=O)C2=C3Nc4ccccc4N3CCC2=O)cc1	1800
O=C1CCN2C(=C1C(=O)Nc1c(F)cccc1F)Nc1ccccc12	2.8
Cc1ccccc1NC(=O)C1=C2Nc3ccccc3N2CCC1=O	230
O=C1CCN2C(=C1C(=O)Nc1ncc[nH]1)Nc1ccccc12	185

###

- Experiment: Suppression of anxiety (punished licking, conflict test) in the adult male rat
- Type: in vivo, male rats
- Condition summary: Table 1, ip, minimum effective dose, >10 = active dose not determined, read-out: Conflict (ip) MED
Entries annotated with measured minimal effective dose
Measured attribute: minimal effective dose

CN(C)c1cccc(NC(=O)C2=C3Nc4ccccc4N3CCC2=O)c1 [compound 34]	> 10 mg/kg
O=C1CCN2C(=C1C(=O)NCc1ccccc1)Nc1ccccc12 [compound 32]	> 10 mg/kg
Cc1cccc2c1NC1=C(C(=O)Nc3ccncc3)C(=O)CCN12 [compound 88]	> 10 mg/kg
O=C1CCN2C(=C1C(=O)Nc1cccnc1F)Nc1ccccc12 [compound 116]	> 10 mg/kg
O=C1CCN2C(=C1C(=O)Nn1cnnc1)Nc1ccccc12 [compound 42]	> 10 mg/kg
O=C1CCN2C(=C1C(=O)Nc1c(F)cc(F)cc1Br)Nc1ccccc12 [compound 103]	> 10 mg/kg
N#Cc1ccc(NC(=O)C2=C3Nc4ccccc4N3CCC2=O)cc1 [compound 54]	< 10 mg/kg
O=C1CCN2C(=C1C(=O)Nc1ccncc1F)Nc1ccccc12 [compound 97]	10 mg/kg
O=C1CCN2C(=C1C(=O)Nc1cc(F)ccc1F)Nc1ccccc12 [compound 98]	> 30 mg/kg

###

- Experiment: Suppression of anxiety (punished licking, conflict test) in the adult male rat
- Assay type: in vivo, male rats
- Condition summary: Table 1, ip, minimum effective dose, >10 = active dose not determined, read-out: Conflict (ip) MED
- Description: The anxiolytic activity of selected compounds of the invention was assessed by determining their ability to release (disinhibit) behavior that had been suppressed by punishment (Vogel, J. R. et al. Psychopharmacology 1971, 21, 1). […] The biological assay is considered to be valid if the effects of a known anxiolytic (positive control) are detected, within the same experiment. […] If the MED value is greater than 10, an active dose of the compound being tested had not been determined.
Measured attribute: minimal effective dose

O=C1CCN2C(=C1C(=O)NCc1cccnc1)Nc1ccccc12	> 10 mg/kg
O=C1CCN2C(=C1C(=O)Nc1ccncc1Cl)Nc1ccccc12	> 10 mg/kg
O=C1CCN2C(=C1C(=O)NN1CCOCC1)Nc1ccccc12	< 10 mg/kg
Cc1cc(NC(=O)C2=C3Nc4ccccc4N3CCC2=O)ccn1	> 10 mg/kg
CSc1cc(N(C)C)ccc1NC(=O)C1=C2Nc3ccccc3N2CCC1=O	> 10 mg/kg
O=C1CCN2C(=C1C(=O)Nc1c(F)cccc1F)Nc1cc(Cl)ccc12	3 mg/kg
CN(C)c1ccc(NC(=O)C2=C3Nc4cc(Cl)ccc4N3CCC2=O)cc1	> 10 mg/kg
CCOC(=O)c1ccc(NC(=O)C2=C3Nc4ccccc4N3CCC2=O)cc1	< 10 mg/kg
O=C1CCN2C(=C1C(=O)NC1CCC1)Nc1ccccc12	10 mg/kg

###

- Experiment: Suppression of metrazol-induced convulsions
- Assay type: in vivo, male CD1 mice
- Condition summary: Mus musculus, 0.5 h; Table 1; ip; mice; clonic convulsions after sc CD90 metrazol; >30 = active dose not determined; read-out: Metrazol (ip) ED50
- Experimental: Selected compounds of the invention were tested for their ability to reduce metrazol-induced convulsions in mice (Swinyard, E. A. J. Am. Pharm Assoc. 1949, 38, 201). […] The biological assay was considered to be valid if the effects of a known anticonvulsant (positive control) were detected, within the same experiment. […] The ED50 values of active compounds were calculated by the method of probits (Finney, D. J. 1971. Probit Analysis. London: Cambridge University Press) and are listed in Tables 1 to 5.
Measured attribute: ED50 (mg/kg)

O=C1CCN2C(=C1C(=O)Nc1c(F)cccc1F)Nc1ccccc12 [compound 36]	1
O=C1CCN2C(=C1C(=O)Nc1c(F)cc(F)cc1F)Nc1cc(F)ccc12 [compound 107]	1
O=C1CCN2C(=C1C(=O)Nc1c(F)cc(F)cc1F)Nc1cc(Cl)ccc12 [compound 104]	1
O=C1CCN2C(=C1C(=O)Nc1c(F)cccc1F)Nc1cc(Cl)ccc12 [compound 114]	1
COc1ccc2c(c1)NC1=C(C(=O)NC3CCCCC3)C(=O)CCN12 [compound 37]	10
O=C1CCN2C(=C1C(=O)Nc1ccc(Br)cc1)Nc1ccccc12 [compound 44]	3
O=C1CCN2C(=C1C(=O)Nc1nnc(C(F)(F)F)s1)Nc1ccccc12 [compound 74]	10
CN(C)c1ccc(NC(=O)C2=C3Nc4ccccc4N3CCC2=O)c(F)c1 [compound 86]	1

###

Entries annotated with measured ED50
- Experiment: Suppression of metrazol-induced convulsions
- Format: in vivo, male CD1 mice
- Condition summary: Mus musculus, 0.5 h; Table 1; ip; mice; clonic convulsions after sc CD90 metrazol; >30 = active dose not determined; read-out: Metrazol (ip) ED50
- Procedure: Selected compounds of the invention were tested for their ability to reduce metrazol-induced convulsions in mice (Swinyard, E. A. J. Am. Pharm Assoc. 1949, 38, 201). […] The biological assay was considered to be valid if the effects of a known anticonvulsant (positive control) were detected, within the same experiment. […] The ED50 values of active compounds were calculated by the method of probits (Finney, D. J. 1971. Probit Analysis. London: Cambridge University Press) and are listed in Tables 1 to 5.
Measured attribute: ED50

O=C1CCN2C(=C1C(=O)Nc1c(Cl)cccc1Cl)Nc1ccccc12	30 mg/kg
CN(C)c1ccc(NC(=O)C2=C3Nc4ccccc4N3CCC2=O)cc1	3 mg/kg
CSc1ccccc1NC(=O)C1=C2Nc3ccccc3N2CCC1=O	> 10 mg/kg
O=C1CCN2C(=C1C(=O)Nc1ccccc1)Nc1cc(Cl)ccc12	> 10 mg/kg
CN(C)c1ccccc1NC(=O)C1=C2Nc3ccccc3N2CCC1=O	10 mg/kg
O=C1CCN2C(=C1C(=O)Nc1ccc3[nH]nnc3c1)Nc1ccccc12	> 10 mg/kg
O=C1CCN2C(=C1C(=O)Nc1ccccc1Cl)Nc1ccccc12	1 mg/kg
O=C1CCN2C(=C1C(=O)Nc1ccc(F)c(F)c1F)Nc1ccccc12	> 10 mg/kg
O=C1CCN2C(=C1C(=O)Nc1c(F)c(F)c(F)c(F)c1F)Nc1ccccc12	1 to 10 mg/kg
O=C1CCN2C(=C1C(=O)NC1CCC1)Nc1ccccc12	> 30 mg/kg
O=C1CCN2C(=C1C(=O)Nc1cccc3cnccc13)Nc1ccccc12	10 mg/kg
O=C1CCN2C(=C1C(=O)Nc1cc(F)ccc1F)Nc1ccccc12	> 30 mg/kg
Cc1cccc2c1NC1=C(C(=O)Nc3ccccc3F)C(=O)CCN12	1 mg/kg
CC(C)NC(=O)C1=C2Nc3ccccc3N2CCC1=O	> 10 mg/kg
O=C1CCN2C(=C1C(=O)NC1CCNCC1)Nc1ccccc12	> 10 mg/kg
O=C1CCN2C(=C1C(=O)Nc1ccccn1)Nc1ccccc12	10 mg/kg
O=C1CCN2C(=C1C(=O)Nc1c(F)cccc1F)Nc1cc(F)ccc12	0.3 mg/kg
O=C1CCN2C(=C1C(=O)Nc1ccc3[nH]ncc3c1)Nc1ccccc12	> 10 mg/kg
O=C1CCN2C(=C1C(=O)Nc1ncc[nH]1)Nc1ccccc12	> 30 mg/kg
CSc1cnccc1NC(=O)C1=C2Nc3ccccc3N2CCC1=O	10 mg/kg
O=C1CCN2C(=C1C(=O)NCCc1ccccc1)Nc1ccccc12	10 to 30 mg/kg
O=C1CCN2C(=C1C(=O)NC1CC1)Nc1ccccc12	> 10 mg/kg
O=C1CCN2C(=C1C(=O)Nc1nccnn1)Nc1ccccc12	10 mg/kg
O=C1CCN2C(=C1C(=O)Nc1ccncc1)Nc1cc(Cl)ccc12	3 mg/kg
CN(C)c1cccc(NC(=O)C2=C3Nc4ccccc4N3CCC2=O)c1	4 mg/kg
O=C1CCN2C(=C1C(=O)Nc1c(F)cc(F)cc1Br)Nc1ccccc12	> 10 mg/kg
NS(=O)(=O)c1ccc(NC(=O)C2=C3Nc4ccccc4N3CCC2=O)cc1	> 10 mg/kg
O=C1CCN2C(=C1C(=O)NCc1ccccc1)Nc1ccccc12	> 30 mg/kg
O=C1CCN2C(=C1C(=O)Nc1c(F)c(F)nc(F)c1F)Nc1ccccc12	> 10 mg/kg
Cc1cc(NC(=O)C2=C3Nc4ccccc4N3CCC2=O)ccn1	> 10 mg/kg
O=C1CCN2C(=C1C(=O)Nc1ccccc1F)Nc1cc(Cl)ccc12	1 mg/kg
CN(C)c1ccc(NC(=O)C2=C3Nc4cc(Cl)ccc4N3CCC2=O)cc1	10 mg/kg
O=C1CCN2C(=C1C(=O)Nc1ccnc(Cl)c1)Nc1ccccc12	> 10 mg/kg
O=C1CCN2C(=C1C(=O)NN1CCOCC1)Nc1ccccc12	> 10 mg/kg
N#Cc1ccc(NC(=O)C2=C3Nc4ccccc4N3CCC2=O)cc1	> 10 mg/kg
Cc1cccc2c1NC1=C(C(=O)Nc3ccncc3)C(=O)CCN12	10 mg/kg
Cc1cc(N(C)C)ccc1NC(=O)C1=C2Nc3ccccc3N2CCC1=O	10 mg/kg
CSc1cc(N(C)C)ccc1NC(=O)C1=C2Nc3ccccc3N2CCC1=O	> 10 mg/kg
